# Test System: 20S proteasome (Homo sapiens) (UniProt P49721+P20618+P28074+P28062+P28065+P28072+P25786+P25787+P25788+P25789+P28066+P60900+O14818+Q8TAA3+P40306+A5LHX3+P49720+P28070+Q99436)
# Assay Text: Negative allosteric modulation of SDS-activated human erythrocytes 20S proteasome assessed as reduction in human alpha-synuclein degradation at 1 uM after 1 hr by SDS-PAGE analysis
Activity calls are given as the source filed them. No cut-off for these calls is given here. Residues, ends and D or L forms follow the SMILES beside them.
Your response should consist of one outcome taken from Y (active), N (inactive)

**Query** Assay outcome for CC(C)C[C@H](NC(=O)[C@H](Cc1ccc(O)cc1)NC(=O)[C@@H]1CCCN1C(=O)[C@@H]1CCCN1C(=O)[C@H](CCCNC(=N)N)NC(=O)[C@@H]1CCCN1C(=O)[C@H](CCCNC(=N)N)NC(=O)[C@H](CCCNC(=N)N)NC(=O)[C@@H](N)CCCNC(=N)N)C(=O)N1CCC[C@H]1C(=O)N[C@@H](CCCNC(=N)N)C(=O)N[C@@H](Cc1c[nH]c2ccccc12)C(=O)NCC(=O)O (H-RRRPRPPYLPRWG-OH) : what was it?
**Result** Y

**Query** Hi team, can someone confirm the assay call for CC(C)C[C@H](NC(=O)[C@@H]1CCCN1C(=O)[C@@H]1CCCN1C(=O)[C@@H]1CCCN1C(=O)[C@@H]1CCCN1C(=O)[C@H](CCCNC(=N)N)NC(=O)[C@H](CCCNC(=N)N)NC(=O)[C@@H](N)CCCNC(=N)N)C(=O)N[C@@H](Cc1ccc(O)cc1)C(=O)N[C@@H](C)C(=O)O (H-RRRPPPPLYA-OH) ?
**Result** N

**Query** Hi team, can someone confirm the assay call for C[C@H](NC(=O)[C@H](Cc1ccc(O)cc1)NC(=O)[C@H](Cc1ccc(O)cc1)NC(=O)[C@@H]1CCCN1C(=O)[C@@H]1CCCN1C(=O)[C@@H]1CCCN1C(=O)[C@@H]1CCCN1C(=O)[C@H](CCCNC(=N)N)NC(=O)[C@H](CCCNC(=N)N)NC(=O)[C@@H](N)CCCNC(=N)N)C(=O)O (H-RRRPPPPYYA-OH) ?
**Result** N
